Measured melting point, listed per entry for reference.
quantity.kind: melting point

> print(dat)
                                  smiles.str            value.observed
 1  Nc1ncnc2c1ncn2Cc1nc2c(Cl)cccc2c(=O)n1-c1ccccc1Cl         273.3 to 273.5 °C
 2  Cc1cccc2nc(Cn3cnc4c(N)ncnc43)n(-c3ccccc3Cl)c(=O)c12         190.7 to 190.9 °C
 3  Nc1ncnc2c1ncn2Cc1nc2ccc(Cl)cc2c(=O)n1-c1ccccc1Cl  294.5 to 294.8 °C (dec.)
 4  O=c1c2cc(Cl)ccc2nc(CSc2ncnc3[nH]cnc23)n1-c1ccccc1Cl  237.1 to 238.2 °C (dec.)
 5  O=c1c2cc(F)ccc2nc(CSc2ncnc3[nH]cnc23)n1-c1ccccc1Cl           232.8 to 233 °C
 6  Nc1ncnc2c1ncn2Cc1nc2ccc(Br)cc2c(=O)n1-c1ccccc1Cl  284.2 to 284.7 °C (dec.)
 7  Cc1ccccc1-n1c(Cn2cnc3c(N)ncnc32)nc2cccc(Cl)c2c1=O           262 to 266.5 °C
 8  O=c1c2cc(O)ccc2nc(CSc2ncnc3[nH]cnc23)n1-c1ccccc1Cl      186 to 214 °C (dec.)
 9  O=c1c2c(Cl)cccc2nc(CSc2ncnc3[nH]cnc23)n1-c1ccccc1Cl  233.7 to 234.4 °C (dec.)
10  Cc1cccc2nc(CSc3ncnc4[nH]cnc34)n(-c3ccccc3Cl)c(=O)c12  227.8 to 230.1 °C (dec.)
11  COc1ccccc1-n1c(Cn2cnc3c(N)ncnc32)nc2cccc(Cl)c2c1=O           257 to 257.1 °C
12  Cc1cccc2nc(CSc3ncnc4[nH]cnc34)n(-c3ccccc3F)c(=O)c12         151.9 to 152.2 °C
13  O=c1c2cc(Br)ccc2nc(CSc2ncnc3[nH]cnc23)n1-c1ccccc1Cl      212 to 242 °C (dec.)
14  COc1cc2nc(Cn3cnc4c(N)ncnc43)n(-c3ccccc3Cl)c(=O)c2cc1OC  281.5 to 282.7 °C (dec.)
15  O=c1c2c(F)cccc2nc(CSc2ncnc3[nH]cnc23)n1-c1ccccc1Cl         222.7 to 223.8 °C
16  O=c1c2cc(F)c(F)cc2nc(CSc2ncnc3[nH]cnc23)n1-c1ccccc1Cl                  207.8 °C
17  Nc1ncnc2c1ncn2Cc1nc2cccc(Cl)c2c(=O)n1-c1ccccc1Cl           245.7 to 246 °C
18  O=c1c2c(Cl)cccc2nc(CSc2ncnc3[nH]cnc23)n1-c1ccccc1F                    244 °C
19  Cc1cccc2nc(Cn3cnc4c(N)ncnc43)n(-c3ccccc3C(C)C)c(=O)c12           258 to 258.2 °C
20  Cc1ccccc1-n1c(CSc2ncnc3[nH]cnc23)nc2cccc(Cl)c2c1=O                  213.9 °C
21  Nc1ncnc2c1ncn2Cc1nc2cc(F)ccc2c(=O)n1-c1ccccc1Cl         216.8 to 217.2 °C
22  O=c1c2c(Cl)cccc2nc(CSc2ncnc3[nH]cnc23)n1-c1ccccc1-c1ccccc1    222 to 222.5 °C (dec.)
23  O=c1c2cc3ccccc3cc2nc(CSc2ncnc3[nH]cnc23)n1-c1ccccc1Cl  247.8 to 254.4 °C (dec.)
24  COc1cc2nc(CSc3ncnc4[nH]cnc34)n(-c3ccccc3Cl)c(=O)c2cc1OC      160 to 180 °C (dec.)
25  O=c1c2ccc(F)cc2nc(CSc2ncnc3[nH]cnc23)n1-c1ccccc1Cl         151.4 to 154.2 °C
26  O=c1c2ccc([N+](=O)[O-])cc2nc(CSc2ncnc3[nH]cnc23)n1-c1ccccc1Cl    218 to 218.3 °C (dec.)

// data source = patent US20200061062A1
